Recorded measurements of melting point, one per entry

Please review the following examples before continuing.
{"compound": "CCCCCNC(=O)N(C)c1cccc(-c2ccc(C=C(OC)C(=O)O)cc2OCCCC)c1", "melting point": "61 °C"}
{"compound": "CCOc1cc2nc(CCl)nc(Cl)c2cc1OCC", "melting point": "109 to 112 °C"}
{"compound": "COC(=O)C1=C(C)NC(C)=C(P(=O)(OC)OC)C1c1cccc([N+](=O)[O-])c1 (stereo not given)", "melting point": "221 to 223 °C"}

Output measured melting point for this item: O=C1c2ccccc2S(=O)(=O)N1CCCCOc1ccc(O)cc1
107 to 109 °C

Supply measured melting point of CCc1nc(NC2CCCC2)c(-c2ccccc2)c(NC2CCCC2)n1 in your reply.
70 to 71 °C

###

melting point values, listed per item

{"compound": "COc1cc(Oc2ccc(S(C)(=O)=O)nc2)cc2cc(C3=NCC(CC(=O)NC[C@H](C)O)S3)[nH]c12 (stereo partly drawn)", "recorded_measurement": "185 to 186 °C"}

The record that follows has no melting point shown yet.
Give melting point for Cc1nn(-c2ccc(Cl)c3c2CC(C)O3)c(=O)[nH]1 (stereo not drawn)
208 to 209 °C

###

measure_name: melting point

Some solved entries appear below for comparison.
{"molecule": "Fc1ccc(Nc2ncnc3cnc(N4CCC(CCC5CCNCC5)CC4)nc23)cc1Cl", "measure_name": "melting point", "recorded_measurement": "112 to 114 °C"}
{"molecule": "CC(C)(C)OC(=O)Nc1cc(CO)c(I)cc1[N+](=O)[O-]", "measure_name": "melting point", "recorded_measurement": "> 250 °C"}
{"molecule": "CCc1nc2c(N)nc3cccnc3c2n1CC1(O)CCNCC1", "measure_name": "melting point", "recorded_measurement": "232 to 233 °C"}
{"molecule": "CCNC1CCN(c2c(F)cc3c(=O)c(C(=O)O)cn(C4CC4)c3c2OC)CC1C (stereo not given)", "measure_name": "melting point", "recorded_measurement": "160 to 162 °C"}
{"molecule": "O=C(Nc1ccc(CCCc2nnn[nH]2)cc1)C(F)(F)C(F)(F)C(F)(F)F", "measure_name": "melting point", "recorded_measurement": "144 to 145 °C"}
{"molecule": "CCCCCCc1ccc(-c2ccc(-c3ncc(C(N)=O)cn3)cc2)cc1", "measure_name": "melting point", "recorded_measurement": "> 260 °C"}

Quote melting point reported for CC(O)c1ccc(CCOc2ccc(CC3SC(=O)NC3=O)cc2)nc1 (stereo not given) please.
155 to 156 °C

Provide melting point value for the following molecule: CN1C(=O)CC[C@]2(C)c3ccc(-c4ccc(Cl)c(C(F)(F)F)c4)cc3CC[C@@H]12
134 to 137 °C

###

melting point values for the compounds below.

Some solved cases for reference:
{"compound": "Cn1c(COc2ccc(CC3SC(=O)NC3=O)cc2)nc2cc(Cl)cnc21 (stereo not given)", "melting point": "203 to 205 °C"}
{"compound": "O=C(CO)OC(=O)CCS", "melting point": "143 to 144 °C"}
{"compound": "COc1nc2nc(C=C3C(=O)N4C(C(=O)O)=CSC34)cn2c2c1CCC2 (stereo not given)", "melting point": "> 250 °C"}
{"compound": "Cn1c(-c2ccc(-c3cccnc3)cc2)cnc1[C@H](Cc1ccccn1)N(C=O)c1cc2cc(Br)ccc2o1", "melting point": "168 to 171 °C"}

We next turn to a different compound, shown below.
Using known records, supply melting point for CC(=O)C(=Cc1ccc(Cl)c(Cl)c1)C(C)=O
73 °C
